# test.name: Stability of peptide/phospholipid complexes by visual inspection
# Assay type: physicochemical
# condition.info: complex of the peptide with POPC, SM; PC/SM 70/30; C16PTX/PL 0.1; SEQ ID No. 25: peptide to phospholipids 1/4
Non-standard residues stand in square brackets, D forms with d. No end group written: not given here. Aib = CC(C)(N)C(=O)O
property.name: Stability of Peptide/Phospholipid Complexes by Visual Inspection

DV{AIB}QKFLELFNQLLEKWKQV (DV[Aib]QKFLELFNQLLEKWKQV) [SEQ ID NO: 32] | Turbid
DVFQKLVELFNQLLEKWKQV [SEQ ID NO: 26] | Turbid
DV{AIB}QKLFELFNQLLEKWKQV (DV[Aib]QKLFELFNQLLEKWKQV) [SEQ ID NO: 27] | Turbid
